// data source = patent US20230120736A1

Tested on: cynomolgus monkey CD98 ECD
Sequence (as listed by the source): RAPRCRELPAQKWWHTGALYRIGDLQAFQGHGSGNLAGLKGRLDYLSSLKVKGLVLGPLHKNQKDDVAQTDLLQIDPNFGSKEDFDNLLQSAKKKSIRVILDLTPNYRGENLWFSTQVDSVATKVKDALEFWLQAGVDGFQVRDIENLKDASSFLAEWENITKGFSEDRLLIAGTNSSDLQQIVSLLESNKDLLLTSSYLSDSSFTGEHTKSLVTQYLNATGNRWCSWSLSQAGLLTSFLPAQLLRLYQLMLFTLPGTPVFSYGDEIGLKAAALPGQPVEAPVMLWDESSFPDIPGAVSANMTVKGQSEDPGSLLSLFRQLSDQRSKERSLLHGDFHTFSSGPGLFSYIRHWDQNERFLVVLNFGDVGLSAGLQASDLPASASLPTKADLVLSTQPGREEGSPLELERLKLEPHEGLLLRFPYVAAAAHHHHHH
Assay Comment: Biacore surface plasmon resonance binding kinetics (anti-Fc capture)
Test Parameters: cyCD98 ECD
Please provide measured ka for the entries that follow.
The reply should contain only the number, in M⁻¹ s⁻¹.

The reported ka of the molecule huAb15v4 (antibody, V domains shown) VH: EVQLVESGGGVVQPGRSLRLSCAASGFTFSDYTMAWVRQAPGKGLEWVATIIYTGRGTYYRDAVKGRFTISRDNSKSTLYLQMNSLRAEDTAVYYCARQSDDTYYYWGYFDYWGQGTMVTVSS VL: DIVMTQSPDSLAVSLGERATINCKSSQSLLFSGNQKNYLAWYQQKPGQSPKLLIYWASTRQSGVPDRFSGSGSGTDFTLTIRSLQAEDVAIYYCQQYYDVPYTFGQGTKLEIK was 20000

The reported ka of the molecule huAb15v2 (antibody, V domains shown) VH: EVQLVESGGGVVQPGRSLRLSCAASGFTFSDYTMAWVRQAPGKGLEWVATIIYSGRGTYYRDAVKGRFTISRDNSKSTLYLQMNSLRAEDTAVYYCARQSDDTYYYWGYFDYWGQGTMVTVSS VL: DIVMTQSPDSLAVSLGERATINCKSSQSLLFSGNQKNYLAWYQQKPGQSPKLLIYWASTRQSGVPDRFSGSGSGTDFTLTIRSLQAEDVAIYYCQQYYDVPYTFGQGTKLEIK was 21000
